tested_target: Estrogen receptor (Homo sapiens, UniProt Q92731+P03372)
procedure_summary: Affinity estrogen receptor of MCF-7 human mammary cancer cells
Assay type: cell-based
condition_notes: mcf7
# note: exactly 2000 nM is not below, so it is 0; use 1 for EC50 strictly under it

# smiles_code, tested_target, label_class
measured = [
    ("C[C@]12CC[C@@H]3c4cc(O)c(O)cc4CC[C@H]3[C@@H]1CC[C@@H]2O", "Estrogen receptor (Homo sapiens, UniProt Q92731+P03372)", 1),
    ("C[C@]12CC[C@@H]3c4cc(CCCO)c(O)cc4CC[C@H]3[C@@H]1CC[C@@H]2O", "Estrogen receptor (Homo sapiens, UniProt Q92731+P03372)", 0),
    ("C[C@]12CC[C@@H]3c4cc(CCO)c(O)cc4CC[C@H]3[C@@H]1CC[C@@H]2O", "Estrogen receptor (Homo sapiens, UniProt Q92731+P03372)", 0),
    ("C[C@]12CC[C@@H]3c4cc(C=O)c(O)cc4CC[C@H]3[C@@H]1CC[C@@H]2O", "Estrogen receptor (Homo sapiens, UniProt Q92731+P03372)", 1),
    ("C[C@]12CC[C@@H]3c4cc(CO)c(O)cc4CC[C@H]3[C@@H]1CC[C@@H]2O", "Estrogen receptor (Homo sapiens, UniProt Q92731+P03372)", 1),
]
